assay_system: piglet OBP (pIOBP), Genbank AF436848, Uniprot Q8WMH1-1, SEQ ID NO: 3 (codon optimized) / SEQ ID NO: 4 (non-optimized), recombinant (Sus scrofa)
Construct: S. cerevisiae alpha-mating factor secretion signal (pPIC9) (N); made in house; host or cells: Pichia pastoris GS115 (vector pPIC9)
Sequence (P81245 with tags, fused parts or gaps): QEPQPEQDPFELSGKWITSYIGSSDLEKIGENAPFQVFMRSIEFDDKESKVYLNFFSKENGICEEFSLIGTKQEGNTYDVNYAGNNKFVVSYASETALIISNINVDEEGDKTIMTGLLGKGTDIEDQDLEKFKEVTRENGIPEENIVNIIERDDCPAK
assay_details: 1-AMA fluorescence binding assay, piglet OBP
Design: species or system pig (piglet/prepubertal)
stated_conditions: pH 3.0
Procedure: The excitation wavelength of 290 nm was used and fluorescence emission intensities were monitored at 504 nm, 483 nm and 486 nm for rat OBP1F, piglet OBP and mouse MUPII respectively. […] Fluorescence ligand binding experiments were performed on a Photon Technology International (London, Canada) Quanta Master Model QM2001 fluorometer at room temperature (19-20° C.), using 1 cm light path quartz cuvettes (Hellma). […]
pKd: −log10 of the molar value.

smiles_notation | pKd
Nc1cccc2cc3ccccc3cc12 | 5.37
